- target: PAN endonuclease (influenza virus PA N-terminal domain) (Influenza A virus)
- Format: binding
observable: FP competitive binding, result in words

// solved cases for FP competitive binding, result in words follow
# molecule, target, reported result
measured = [
    ("O=C(O)C(=O)C1=C(O)c2ccccc2OC1", "PAN endonuclease (influenza virus PA N-terminal domain) (Influenza A virus)", "inactive"),
    ("CC(C)(C)OC(=O)/C(O)=C/C(=O)c1ccccc1", "PAN endonuclease (influenza virus PA N-terminal domain) (Influenza A virus)", "inactivity"),
    ("O=C(O)/C(O)=C/C(=O)c1cccnc1", "PAN endonuclease (influenza virus PA N-terminal domain) (Influenza A virus)", "inactive"),
    ("COC(=O)/C(O)=C/C(=O)c1ccccc1 [Compound 16, reference compound]", "PAN endonuclease (influenza virus PA N-terminal domain) (Influenza A virus)", "inactivity"),
    ("O=C(O)/C=C/C(=O)c1ccccc1", "PAN endonuclease (influenza virus PA N-terminal domain) (Influenza A virus)", "inactive"),
]

Turning to the following molecule.
Let me check: COc1ccc2c(c1)CC(C(=O)C(=O)O)=C2O , system PAN endonuclease (influenza virus PA N-terminal domain) (Influenza A virus), measured FP competitive binding, result in words is inactive
